Origin of values: PubChem BioAssay (NCI)

// reported growth for each item listed
tested on: HCT-15 colon; experiment: NCI-60 one-dose screen, 48 h (100 = growth as untreated, 0 = no growth, -100 = all killed); settings: 10 µM unless noted
The panel holds about 83,000 compounds, 20% with a hit somewhere; the sample as a whole holds those more often.
Answer in %, number only, no unit symbol.

INPUT: // Input: O=S1(=O)NCCCN1CCNc1nccc(-c2c(-c3cccc(O)c3)nc3sccn23)n1 . Output its growth only.
OUTPUT: 95.5

INPUT: Dear colleague, please send me the reported growth for CC(C)CCSc1nc(Nc2ccccc2)c(C#N)c(-c2ccc(F)cc2)n1 when you can.
OUTPUT: 71.7

INPUT: Let me know recorded growth for CNC(=O)c1c(NC(=O)c2ccc(C(C)C)cc2)sc2c1CCC(=O)C2 , thanks.
OUTPUT: -40.7

INPUT: Recall and state the measured growth for O=S1(=O)NCCN1CCNc1nccc(-c2c(-c3cccc(O)c3)nc3sccn23)n1 .
OUTPUT: 127

INPUT: Please supply the value of reported growth for the item CC(C)(C)c1ccc(C(=O)Nc2sc3cc(O)ccc3c2C(N)=O)cc1
OUTPUT: 43.9

INPUT: Give the value of growth reported for the following: Cc1cc(N)cc(C)c1-c1c(Br)cc(N)cc1Br
OUTPUT: 32

INPUT: Name the recorded growth of the item CCS(=O)(=O)Nc1cccc(Nc2c3cccc(C)c3nc3c(C)cccc23)c1OC in your answer.
OUTPUT: 11.1

INPUT: Look up and state reported growth for COc1ccc(C(=O)C(CN(C)C)c2ccc(OC)cc2)cc1 (centres undefined)
OUTPUT: 30.4
